System: ENR+CD organoids (ISC to Paneth cell differentiation)
Test: Primary screen: basal (non-stimulated) lysozyme secretion LYZ.NS, 2.5-D 384-well ENR+CD organoid differentiation
Format: cell-based, mouse
Conditions: primary screen, dose 0.08 uM
List of Dose.FC.LYZ.NS (log2 fold change) values.
MEASURED_PROPERTY: Dose.FC.LYZ.NS (log2 fold change)

1. O=C(Nc1cc(C(F)(F)F)cc(C(F)(F)F)c1)c1cc(Cl)ccc1O [IMD 0354]; 0.004
2. Cc1ccc(NC(=O)c2ccc(CN3CCN(C)CC3)cc2)cc1Nc1nccc(-c2cccnc2)n1 [Imatinib (STI571)]; 0.033
3. CC(C)(C)Cn1c(N)nc2ccc(-c3[nH]c(C(C)(C)C)nc3-c3ccc(F)cc3)nc21 [LY2228820]; 0.065
4. O=C(c1ccc(Nc2nccc(-c3cc4ccccc4s3)n2)cc1)N1CCC(N2CCCC2)CC1 [IKK-16 (IKK Inhibitor VII)]; 0.104
